Entries with reported pIC50 on Phos15739 (Drosophila melanogaster, UniProt Q9VYT0)
Reminder that pIC50 is minus the log10 of a molar concentration.

Look over these answered cases.
• CC(=O)N[C@@H](CSC/C=C(\C)CC/C=C(\C)CCC=C(C)C)C(=O)O = 4.55
• CC(=O)N[C@@H](CSC/C=C(\C)CC/C=C(\C)CC/C=C(\C)CCC=C(C)C)C(=O)O = 5.36

Now for a further compound.
Exercise: Find the recorded pIC50 belonging to `CC(=O)N[C@@H](CSC/C=C(\C)CCC=C(C)C)C(=O)O` and report it.
Solution: 5.20

* * *

# TARGET UNDER TEST: Phos2680 (Drosophila melanogaster)
REPORTED ENDPOINT: IC50

- CC(=O)N[C@@H](CSC/C=C(\C)CC/C=C(\C)CCC=C(C)C)C(=O)O [N-acetyl-S-farnesyl-L-cysteine]: > 100 µM
- CC(=O)N[C@@H](CSC/C=C(\C)CC/C=C(\C)CC/C=C(\C)CCC=C(C)C)C(=O)O [N-acetyl-S-geranylgeranyl-L-cysteine]: 14 µM
- CC(C)=CCC/C(C)=C/CC/C(C)=C/CSCC(=O)O [S-Farnesyl-thioacetic acid]: 5.1 µM
- CC(=O)N[C@@H](CSC/C=C(\C)CCC=C(C)C)C(=O)O [N-acetyl-S-geranyl-L-cysteine]: > 100 µM

Here's the next entry for you.
Exercise: Could you share what IC50 was measured for C[C@H](CCC(=O)NCCS(=O)(=O)O)[C@H]1CC[C@H]2[C@@H]3CC[C@@H]4C[C@H](OS(=O)(=O)O)CC[C@]4(C)[C@H]3CC[C@]12C [Taurolithocholic acid 3-sulfate, taurolithocholic acid 3-sulfate] , tested on Phos2680 (Drosophila melanogaster)?
Solution: > 100 µM

* * *

# TARGET UNDER TEST: Phos15739 (Drosophila melanogaster, UniProt Q9VYT0)
# Assay type: biochemical, D. melanogaster
# CONDITION INFO: isoprenoid mono- and pyrophosphate substrates
REPORTED ENDPOINT: substrate quality for Phos15739 (in words)

* CC(C)=CCC/C(C)=C/CC/C(C)=C/CC/C(C)=C/COP(=O)(O)OP(=O)(O)O [GGPP, Geranylgeranyl pyrophosphate] | not good substrates
* C=C(C)CCOP(=O)(O)OP(=O)(O)O [IPP] | weak substrates
* CC(C)=CCC/C(C)=C/CC/C(C)=C/CC/C(C)=C/COP(=O)(O)O [GGMP] | not good substrates
* CC(C)=CCC/C(C)=C/COP(=O)(O)OP(=O)(O)O [GPP] | weak substrates

The measured values listed here are drawn from paper PMC2657470.
